assay: Aqueous solubility of the compound after 24 to 36 hrs by LC-MS-MS assay; format: physicochemical; details: buffer
measurement type: solubility (µg/mL)
Please give a number only; it is taken to be in µg/mL.

Can you share its solubility? I mean this molecule: CSc1nc(Nc2cccc(Cl)c2)c2cnn(CC(Cl)c3ccccc3)c2n1 (configuration not stated)
0.046

---

molecular target: Proto-oncogene tyrosine-protein kinase Src (Homo sapiens); assay: Inhibition human recombinant cSRC using KVEKIGEGTYGVVYK peptide substrate in presence of [gamma-32P]-ATP
measurement type: pKi
# reply with the number alone; pKi is -log10 of concentration in mol/L

Previously resolved entries follow.
compound	pKi
CSc1nc(Nc2cccc(Cl)c2)c2cnn(CC(Cl)c3ccccc3)c2n1 (stereo not given)	6.15
CSc1nc(Nc2ccccc2)c2cnn(CC(C)c3ccccc3)c2n1 (stereo not given)	7.60
CSc1nc(Nc2cccc(Cl)c2)c2cnn(CCc3ccccc3)c2n1	7.05
CSc1nc(Nc2cccc(Cl)c2)c2cnn(CC(C)c3ccccc3)c2n1 (stereo not given)	7.60

// switching to the query compound
Reported pKi for Proto-oncogene tyrosine-protein kinase Src (Homo sapiens), given ClC(Cn1ncc2c(NCc3ccccc3)ncnc21)c1ccccc1 (stereo not given) ?
5.52

---

assay: Metabolic stability in human liver microsomes at 50 uM at pH 7.4 using NADPH by LC-UV-MS method; assay type: ADME, Microsome; conditions: read-out: Stability
measurement type: remaining at 50 µM (%)
Give just the numeric value; % need not be written.

Consider the worked cases shown below.
compound	remaining at 50 µM [%]
CSc1nc(Nc2cccc(Br)c2)c2cnn(CC(C)c3ccccc3)c2n1 (stereo not drawn)	95
CSc1nc(Nc2cccc(Cl)c2)c2cnn(CC(Cl)c3ccccc3)c2n1 (stereo not drawn)	91

# ---- query compound ----
For the compound shown here, CSc1nc(Nc2cccc(Cl)c2)c2cnn(CCc3ccccc3)c2n1 , give the reported remaining at 50 µM.
99

---

molecular target: Serine/threonine-protein kinase pim-1 (Homo sapiens); experiment: Inhibition human recombinant Pim1 using KKRNRLTLTV peptide substrate in presence of [gamma-32P]-ATP
measurement type: pKi
Friendly reminder that pKi comes from taking -log10 of the concentration in mol/L.

compound	recorded measurement
CSc1nc(Nc2ccccc2)c2cnn(CC(C)c3ccccc3)c2n1 (stereo not drawn)	4.94

Which measured pKi belongs to CSc1nc(Nc2cccc(Cl)c2)c2cnn(CCc3ccccc3)c2n1 , tested on Serine/threonine-protein kinase pim-1 (Homo sapiens)?
5.19

How about CSc1nc(Nc2cccc(Cl)c2)c2cnn(CC(C)c3ccccc3)c2n1 (stereo not drawn) ?
5.18

---

biological target: Tyrosine-protein kinase ABL1 (Homo sapiens)
measurement type: Ki (nM)
Please give a number only; it is taken to be in nM.

I'd like to know its Ki. The molecule in question is ClC(Cn1ncc2c(NCc3ccccc3)ncnc21)c1ccccc1 (stereo unspecified)
370

---

molecular target: Tyrosine-protein kinase HCK (Homo sapiens, UniProt P08631); assay: Inhibition human recombinant HcK using KVEKIGEGTYGVVYK peptide substrate in presence of [gamma-32P]-ATP
Here the recorded Ki is given for each entry.
Hi! Could you send only the number? It should be in µM, unit omitted.

compound	readout units	Ki
CSc1nc(Nc2cccc(Cl)c2)c2cnn(CCc3ccccc3)c2n1	µM	1.72
CSc1nc(Nc2cccc(Cl)c2)c2cnn(CC(C)c3ccccc3)c2n1 (stereo not drawn)	µM	5

# evaluate next
Looking for the measured Ki of CSc1nc(Nc2ccccc2)c2cnn(CC(C)c3ccccc3)c2n1 (stereo not drawn) , can you help?
3.87
